system: Saccharomyces cerevisiae; assay: protein stability index of tFT-peptide fusion (C-terminal peptide) (PSI (0-1 scale)); higher = more stable (slower turnover); conditions: genetic background: das1 deletion; temperature: 37 C
readout-name: protein stability index
The reply should be a number, written without any unit.

Reference set, count: 4
Look up protein stability index: "SFCSFVFVTFVL"
0.508

Same thing, different sequence: "FSQGFRSPSECL"
0.765

What do you get for "HFASPPAPRSNL" ?
0.81

Please give the result for "VPGCLGRFLFFL" too.
0.722

Others:
Please look up its protein stability index: "GQFFRCWRRRLC"
0.72

Another sequence: "KIKQIKINNKIN"
0.758

Request: "FFLVILSWWVGE"
0.345

Next: "FKYRVPLVGVVK"
0.433

Now consider "IFCRCNSTVLLI" and answer again.
0.596

Query "GGRREWCRGGGV" next
0.695

====

tested on: Saccharomyces cerevisiae; assay: protein stability index of tFT-peptide fusion (C-terminal peptide) (PSI (0-1 scale)); higher = more stable (slower turnover); settings: genetic background: das1 deletion; temperature: 30 C
readout-name: protein stability index
Lab note: write the figure by itself, no unit.

Solved cases below.
Form field: reported protein stability index of KSVRIAIDKPIR [ALD5 C-terminal 12 aa]
0.696

// repeat for ATALSGHKANCN [MTQ1 C-terminal 12 aa] and report
0.688

Another sequence to look at: KALQKAMGSVQF [YEL1 C-terminal 12 aa]
0.702

New cases:
May I ask what protein stability index has been recorded for PSSKAPSPGVNT [TEM1 C-terminal 12 aa] ?
0.677

Also, YPGEAKRPQERF [COX10 C-terminal 12 aa] please.
0.69

And the next one, EGIFPANYVRVS [YSC84 C-terminal 12 aa] ?
0.663

====

tested on: Saccharomyces cerevisiae; experiment: protein stability index of tFT-peptide fusion (C-terminal peptide) (PSI (0-1 scale)); higher = more stable (slower turnover); settings: genetic background: wild type; temperature: 30 C
readout-name: protein stability index
Please reply with the number alone, leaving off any unit.

These recorded examples may help you get a feel for the data.
I'm curious: which protein stability index was measured for "LSVSSLMFNWRS" tested on Saccharomyces cerevisiae?
0.707

Another sequence to look at: "GGICVVAYWRLA"
0.198

Here is the next sequence: "SSFSACPTKIII"
0.686

***
Quick check: protein stability index on Saccharomyces cerevisiae, item "WGWGRWEMVGRT" ?
0.695

Field entry: "GVFASWAWFGVG"
0.71

Another: "DLGLEVVSFLKF"
0.741

====

system: Saccharomyces cerevisiae; assay: protein stability index of tFT-peptide fusion (C-terminal peptide) (PSI (0-1 scale)); higher = more stable (slower turnover); details: genetic background: wild type; temperature: 30 C
readout-name: protein stability index

Return protein stability index measured with Saccharomyces cerevisiae given this sequence: "PRSPSLPPLFSP"
0.718

Continue with "SYGIETRLKGKK"
0.63

Queued: "PISKLCLTSYEY"
0.697

Try "FSSLHLTHELLS" next.
0.664

Param item: "FVPPGTTSPNTT"
0.731

Next sequence: "KNKKNKKKKTMK"
0.685

One more sequence: "EDACARFVRLFL"
0.678

Can you handle "KISNRNKRTNRK" next?
0.689

"FVCWGSLILCGG" ?
0.264

Try the sequence "IRSVVLSSCWRG"
0.706

Next:
API: value(readout= protein stability index, system= Saccharomyces cerevisiae, query= "PGVIFRLPSCFV" )
0.652

Next sequence up: "PVPDDVTVLLSR"
0.804

"APPLSLPPRLFL" , same question.
0.69
